Provenance of the data: patent US5162328A

# Test Name: Pharmacokinetics in dogs (plasma concentration by HPLC)
# Type: in vivo, dog (beagle)
# Condition Set: dog, plasma, po, 2 mg/kg/day, Dog 1, day 1, 12 h; 2 mg/kg/day PO
Reported Metric: concentration at 12 h

INSERT INTO measurements (smiles_str, reported_metric, result) VALUES
  ('c1cc(Nc2nccc(-c3cccs3)n2)cc(OCCn2ccnc2)c1', 'concentration at 12 h', '< 30 ng/mL');

* * *

# Test Name: Pharmacokinetics in dogs (plasma concentration by HPLC)
# Format: in vivo, dog (beagle)
# Condition Set: dog, plasma, po, 2 mg/kg/day, Dog 4, day 1; 2 mg/kg/day PO
Reported Metric: Cmax (ng/mL)

INSERT INTO measurements (molecule, reported_metric, readout_number) VALUES
  ('c1cc(Nc2nccc(-c3cccs3)n2)cc(OCCn2ccnc2)c1', 'Cmax', 364),
  ('Cc1cc(Nc2nccc(-c3ccncc3)n2)ccc1N.Cl.Cl [Compound 2, reference compound]', 'Cmax', 482);

* * *

# Test Name: Pharmacokinetics in dogs (plasma concentration by HPLC)
# Type: in vivo, dog (beagle)
# Condition Set: dog, plasma, po, 2 mg/kg/day, Dog 4, day 3, 12 h; 2 mg/kg/day PO
Reported Metric: concentration at 12 h

INSERT INTO results (smiles_str, reported_metric, result) VALUES
  ('c1cc(Nc2nccc(-c3cccs3)n2)cc(OCCn2ccnc2)c1', 'concentration at 12 h', '< 30 ng/mL');

* * *

# Test Name: Pharmacokinetics in dogs (plasma concentration by HPLC)
# Format: in vivo, dog (beagle)
# Condition Set: dog, plasma, po, 2 mg/kg/day, Dog 1, day 5, 12 h; 2 mg/kg/day PO
# Procedure: Since dogs are used in toxicology studies of antiasthma compounds, this species is chosen for pharmacokinetic evaluations. […] Heparinized blood samples are obtained from each animal on the first, third and fifth day of dosage at 0.5, 1.0, 2.0, 4.0, 7.0, 12.0 and 24.0 hours after the dose. The samples are centrifuged immediately to obtain plasma which is frozen until analyzed. […]
Reported Metric: concentration at 12 h

INSERT INTO assay_data (smiles_str, reported_metric, result) VALUES
  ('c1cc(Nc2nccc(-c3cccs3)n2)cc(OCCn2ccnc2)c1', 'concentration at 12 h', '< 30 ng/mL');

* * *

# reported concentration at 1 h; entries follow
# Test Name: Pharmacokinetics in dogs (plasma concentration by HPLC)
# Assay type: in vivo, dog (beagle)
# Condition Set: dog, plasma, po, 2 mg/kg/day, Dog 3, day 3, 1 h; 2 mg/kg/day PO
Reported Metric: concentration at 1 h (ng/mL)

INSERT INTO results (compound, value_unit, readout_number) VALUES
  ('c1cc(Nc2nccc(-c3cccs3)n2)cc(OCCn2ccnc2)c1', 'ng/mL', 350),
  ('Cc1cc(Nc2nccc(-c3ccncc3)n2)ccc1N.Cl.Cl [Compound 2, reference compound]', 'ng/mL', 284);

* * *

# Test Name: Pharmacokinetics in dogs (plasma concentration by HPLC)
# Format: in vivo, dog (beagle)
# Condition Set: dog, plasma, po, 2 mg/kg/day, Dog 2, day 5; 2 mg/kg/day PO
Reported Metric: Tmax (min)

INSERT INTO results (compound, readout_number) VALUES
  ('Cc1cc(Nc2nccc(-c3ccncc3)n2)ccc1N.Cl.Cl [Compound 2, reference compound]', 30),
  ('c1cc(Nc2nccc(-c3cccs3)n2)cc(OCCn2ccnc2)c1', 60);

* * *

# Test Name: Pharmacokinetics in dogs (plasma concentration by HPLC)
# Assay type: in vivo, dog (beagle)
# Condition Set: dog, plasma, po, 2 mg/kg/day, Dog 4, day 5; 2 mg/kg/day PO
# reported Tmax; entries follow
Reported Metric: Tmax

INSERT INTO measurements (compound, result) VALUES
  ('Cc1cc(Nc2nccc(-c3ccncc3)n2)ccc1N.Cl.Cl [Compound 2, reference compound]', '0.5 h'),
  ('c1cc(Nc2nccc(-c3cccs3)n2)cc(OCCn2ccnc2)c1', '2 h');

* * *

# Test Name: Pharmacokinetics in dogs (plasma concentration by HPLC)
# Format: in vivo, dog (beagle)
# Condition Set: dog, plasma, po, 2 mg/kg/day, Dog 1, day 3; 2 mg/kg/day PO; read-out: AUCO- (to infinite time)
Reported Metric: AUC(0-inf) (ng·h/mL)

INSERT INTO assay_data (compound, value_unit, readout_number) VALUES
  ('c1cc(Nc2nccc(-c3cccs3)n2)cc(OCCn2ccnc2)c1', 'ng·h/mL', 398),
  ('CCN(CC)CCOc1ccc(Nc2nccc(-c3ccncc3)n2)cc1.Cl.Cl [Compound 3, reference compound]', 'ng·h/mL', 423),
  ('Cc1cc(Nc2nccc(-c3ccncc3)n2)ccc1N.Cl.Cl [Compound 2, reference compound]', 'ng·h/mL', 602);

* * *

# reported concentration at 2 h; entries follow
# Test Name: Pharmacokinetics in dogs (plasma concentration by HPLC)
# Type: in vivo, dog (beagle)
# Condition Set: dog, plasma, po, 2 mg/kg/day, Dog 4, day 3, 2 h; 2 mg/kg/day PO
Reported Metric: concentration at 2 h (ng/mL)

INSERT INTO results (compound, value_unit, operator, readout_number) VALUES
  ('Cc1cc(Nc2nccc(-c3ccncc3)n2)ccc1N.Cl.Cl [Compound 2, reference compound]', 'ng/mL', '<', 30),
  ('c1cc(Nc2nccc(-c3cccs3)n2)cc(OCCn2ccnc2)c1', 'ng/mL', '=', 144);

* * *

# Test Name: Pharmacokinetics in dogs (plasma concentration by HPLC)
# Assay type: in vivo, dog (beagle)
# Condition Set: dog, plasma, po, 2 mg/kg/day, Dog 4, day 3; 2 mg/kg/day PO
Reported Metric: Tmax (min)

INSERT INTO assay_data (compound, readout_number) VALUES
  ('Cc1cc(Nc2nccc(-c3ccncc3)n2)ccc1N.Cl.Cl [Compound 2, reference compound]', 30),
  ('c1cc(Nc2nccc(-c3cccs3)n2)cc(OCCn2ccnc2)c1', 60);

* * *

# Test Name: Pharmacokinetics in dogs (plasma concentration by HPLC)
# Assay type: in vivo, dog (beagle)
# Condition Set: dog, plasma, po, 2 mg/kg/day, Mean of 4 dogs, day 5, 12 h; 2 mg/kg/day PO
Reported Metric: concentration at 12 h

INSERT INTO results (smiles_str, reported_metric, result) VALUES
  ('c1cc(Nc2nccc(-c3cccs3)n2)cc(OCCn2ccnc2)c1', 'concentration at 12 h', '< 30 ng/mL');

* * *

# Test Name: Pharmacokinetics in dogs (plasma concentration by HPLC)
# Assay type: in vivo, dog (beagle)
# Condition Set: dog, plasma, po, 2 mg/kg/day, Mean of 4 dogs, day 1, 0.5 h; 2 mg/kg/day PO
# reported concentration at 0.5 h; entries follow
Reported Metric: concentration at 0.5 h (ng/mL)

INSERT INTO measurements (molecule, reported_metric, value_unit, readout_number) VALUES
  ('Cc1cc(Nc2nccc(-c3ccncc3)n2)ccc1N.Cl.Cl [Compound 2, reference compound]', 'concentration at 0.5 h', 'ng/mL', 509),
  ('c1cc(Nc2nccc(-c3cccs3)n2)cc(OCCn2ccnc2)c1', 'concentration at 0.5 h', 'ng/mL', 235);

* * *

# reported concentration at 1 h; entries follow
# Test Name: Pharmacokinetics in dogs (plasma concentration by HPLC)
# Assay type: in vivo, dog (beagle)
# Condition Set: dog, plasma, po, 2 mg/kg/day, Dog 4, day 5, 1 h; 2 mg/kg/day PO
Reported Metric: concentration at 1 h

INSERT INTO measurements (compound, result) VALUES
  ('Cc1cc(Nc2nccc(-c3ccncc3)n2)ccc1N.Cl.Cl [Compound 2, reference compound]', '< 30 ng/mL'),
  ('c1cc(Nc2nccc(-c3cccs3)n2)cc(OCCn2ccnc2)c1', '191 ng/mL');

* * *

# reported Tmax; entries follow
# Test Name: Pharmacokinetics in dogs (plasma concentration by HPLC)
# Format: in vivo, dog (beagle)
# Condition Set: dog, plasma, po, 2 mg/kg/day, Dog 2, day 3; 2 mg/kg/day PO
Reported Metric: Tmax (min)

INSERT INTO results (compound, readout_number) VALUES
  ('c1cc(Nc2nccc(-c3cccs3)n2)cc(OCCn2ccnc2)c1', 60),
  ('Cc1cc(Nc2nccc(-c3ccncc3)n2)ccc1N.Cl.Cl [Compound 2, reference compound]', 30);

* * *

# Test Name: Pharmacokinetics in dogs (plasma concentration by HPLC)
# Type: in vivo, dog (beagle)
# Condition Set: dog, plasma, po, 2 mg/kg/day, Dog 1, day 1, 1 h; 2 mg/kg/day PO
Reported Metric: concentration at 1 h (ng/mL)

INSERT INTO assay_data (compound, value_unit, readout_number) VALUES
  ('c1cc(Nc2nccc(-c3cccs3)n2)cc(OCCn2ccnc2)c1', 'ng/mL', 595),
  ('Cc1cc(Nc2nccc(-c3ccncc3)n2)ccc1N.Cl.Cl [Compound 2, reference compound]', 'ng/mL', 233);
